These entries and their values trace back to the supplement of paper PMC9112550.

# shrunken log2 fold change listing for each entry below
- System: Escherichia coli TOP10
- assay-protocol: shrunken log2 fold change of peptide-encoding DNA abundance (4.5 h post-induction vs induction); higher = less antimicrobial activity (less host growth inhibition)
- assay-context: time post-induction: 4.5 h; library: site-saturation at positions 5, 18, 19, 20
endpoint-name: shrunken log2 fold change

>>> df
                   sequence              endpoint_name  value_measured
 0  RRIRERPPRLPRPRPRPNHVPRP  shrunken log2 fold change           -0.25
 1  RRIRFRPPRLPRPRPRPIDNPRP  shrunken log2 fold change            2.36
 2  RRIRYRPPRLPRPRPRPHHIPRP  shrunken log2 fold change          -0.356
 3  RRIRIRPPRLPRPRPRPPMYPRP  shrunken log2 fold change          -0.849
 4  RRIRIRPPRLPRPRPRPNYTPRP  shrunken log2 fold change          -0.516
 5  RRIRCRPPRLPRPRPRPHYQPRP  shrunken log2 fold change           -1.29
 6  RRIRIRPPRLPRPRPRPFNEPRP  shrunken log2 fold change          -0.331
 7  RRIRWRPPRLPRPRPRPTWQPRP  shrunken log2 fold change           0.125
 8  RRIRWRPPRLPRPRPRPIMNPRP  shrunken log2 fold change          -0.473
 9  RRIRPRPPRLPRPRPRPFMFPRP  shrunken log2 fold change          -0.361
10  RRIRIRPPRLPRPRPRPFECPRP  shrunken log2 fold change         -0.0837
11  RRIRSRPPRLPRPRPRPGVTPRP  shrunken log2 fold change          0.0674
12  RRIRERPPRLPRPRPRPIYPPRP  shrunken log2 fold change         -0.0605
13  RRIRIRPPRLPRPRPRPQWAPRP  shrunken log2 fold change          0.0405

###

# shrunken log2 fold change listing for each entry below
- Tested on: Escherichia coli TOP10;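 also: peptides expressed intracellularly from a pBAD plasmid library in pooled LB shake-flask culture, induced with 0.3% L-arabinose, DNA abundance read by NGS, three biological replicates, DESeq2 with apeglm shrinkage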
- assay-protocol: shrunken log2 fold change of peptide-encoding DNA abundance (4.5 h post-induction vs induction); higher = less antimicrobial activity (less host growth inhibition)
- assay-context: time post-induction: 4.5 h; library: site-saturation at positions 5, 18, 19, 20
endpoint-name: shrunken log2 fold change

In [3]: df
Out[3]:
                   sequence  value_measured
 0  RRIRMRPPRLPRPRPRPYTIPRP          0.0978
 1  RRIRQRPPRLPRPRPRPQMAPRP          -0.065
 2  RRIRRRPPRLPRPRPRPYCQPRP          -0.664
 3  RRIRYRPPRLPRPRPRPYIPPRP          -0.457
 4  RRIRHRPPRLPRPRPRPHFYPRP          -0.139
 5  RRIRYRPPRLPRPRPRPFSFPRP           -0.35
 6  RRIRGRPPRLPRPRPRPGDTPRP           0.616
 7  RRIRTRPPRLPRPRPRPKPFPRP           0.122
 8  RRIRRRPPRLPRPRPRPTNTPRP           0.142
 9  RRIRQRPPRLPRPRPRPRMIPRP          -0.227
10  RRIRIRPPRLPRPRPRPPVRPRP           0.172
11  RRIRPRPPRLPRPRPRPNFSPRP            1.08
12  RRIRIRPPRLPRPRPRPKLPPRP          0.0199
13  RRIRYRPPRLPRPRPRPARPPRP           0.943
14  RRIRTRPPRLPRPRPRPNRMPRP          -0.331
15  RRIRARPPRLPRPRPRPNCCPRP           0.131
16  RRIRERPPRLPRPRPRPGWCPRP         0.00111
17  RRIRERPPRLPRPRPRPRCVPRP          0.0448
18  RRIRMRPPRLPRPRPRPFMGPRP         -0.0409
19  RRIRWRPPRLPRPRPRPVCKPRP           0.643
20  RRIRIRPPRLPRPRPRPWTAPRP          -0.307
